A collection of compounds and their measured pEC50
# Test System: human APJ receptor (Homo sapiens (Human), UniProt P35414)
# Sequence (P35414 whole entry): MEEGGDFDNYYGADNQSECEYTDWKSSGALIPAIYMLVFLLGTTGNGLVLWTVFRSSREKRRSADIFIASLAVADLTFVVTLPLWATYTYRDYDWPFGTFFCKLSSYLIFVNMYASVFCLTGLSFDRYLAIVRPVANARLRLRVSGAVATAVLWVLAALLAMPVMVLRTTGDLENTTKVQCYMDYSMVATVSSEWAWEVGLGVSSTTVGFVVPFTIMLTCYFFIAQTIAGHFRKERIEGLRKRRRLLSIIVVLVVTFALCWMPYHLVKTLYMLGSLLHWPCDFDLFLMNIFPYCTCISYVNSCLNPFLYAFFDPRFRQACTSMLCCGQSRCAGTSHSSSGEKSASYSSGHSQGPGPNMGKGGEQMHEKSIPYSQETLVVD
# Assay Explanation: biochemical
# Experimental Conditions: read-out: Activity hAPJ SPA EC50 IP
Reminder that pEC50 is minus the log10 of a molar concentration.

Answered cases to consult:
>>> data_value("COc1cccc(OC)c1-n1c(NS(=O)(=O)[C@@H](C)[C@H](O)c2nc(C)c(C)s2)nnc1-c1cncc(C)c1 (single isomer, unassigned) [Example 294.0]")
7.96
>>> data_value("COc1cccc(OC)c1-n1c(NS(=O)(=O)[C@H](C)[C@@H](OC)c2ccc(C#N)cn2)nnc1-c1cncc(C)c1 (single isomer, unassigned) [Example 554.0]")
8.57
>>> data_value("COc1cccc(OC)c1-n1c(NS(=O)(=O)[C@H](C)[C@@H](C)n2cc(C)cn2)nnc1-c1cncc(C)c1 (racemic) [Example 647.0]")
8.77
>>> data_value("CCO[C@H](c1ncc(F)cn1)[C@H](C)S(=O)(=O)Nc1nnc(-c2cncc(C)c2)n1-c1c(OC)cccc1OC [Example 79.0]")
9.39

Then there is this compound:
Ask: Recall and state the measured pEC50 for COc1cccc(OC)c1-n1c(NS(=O)(=O)[C@@H](C)[C@H](OC)c2ncc(C)cn2)nnc1-c1ccnc(C)c1 [Example 104.0] .
Result: 8.62
